- Tested on: primary rat microglia
- experimentalDetails: Cell toxicity (dead cells, size <150 μm2) in coated fibrin (cFib) assay;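 further: share of dead cells sized under 150 µm2 at 10 µM in fibrin-stimulated microglia HTS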
- measurementParameters: primary microglia HTS, fibrin assay, dead cells (size <150 μm2), compounds at 10 μM
Counter-ions that a name gives are not always drawn.

compound	Fibrin % cell toxicity
O=C(O)CCC(=O)c1ccc(-c2ccccc2)cc1	0%
O=S(=O)(c1cccc2cnccc12)N1CCCNCC1 [Fasudil Hydrochloride]	1%
CC[N+](C)(C)c1cccc(O)c1	1%
CCCCCCCCCCCCCCCCCCCCCCO	0%
C#C[C@]1(O)CC[C@H]2[C@@H]3CCC4=Cc5oncc5C[C@]4(C)[C@H]3CC[C@@]21C	1%
CCN[C@@H](C)Cc1cccc(C(F)(F)F)c1	1%
CCN1CC(CCN2CCOCC2)C(c2ccccc2)(c2ccccc2)C1=O (stereo not drawn) [Doxapram Hydrochloride]	0%
CCC1(C2=NCCN2)Cc2ccccc2O1 (stereo not drawn) [Efaroxan, Efaroxan Hydrochloride]	1%
O=C(O)CSCC(=O)NC1CCSC1=O (stereo not drawn)	1%
CN1CCC[C@@H]1Cc1c[nH]c2ccc(CCS(=O)(=O)c3ccccc3)cc12 [Eletriptan Hydrobromide]	1%
CCCCC(O)c1ccccc1 (stereo not drawn)	1%
CCOc1ccccc1C(N)=O [Ethenzamide]	1%
FC(F)(Cl)C(F)(F)Cl	1%
CCN(CC)C(C)CN1c2ccccc2Sc2ccccc21 (stereo not drawn)	1%
C[C@]12CC[C@@H]3c4ccc(OC(=O)N(CCCl)CCCl)cc4CC[C@H]3[C@@H]1CC[C@@H]2O	1%
CC(=O)OCC(=O)[C@@]1(OC(C)=O)[C@@H](C)C[C@H]2[C@@H]3C[C@H](F)C4=CC(=O)C=C[C@]4(C)[C@@]3(F)[C@@H](O)C[C@@]21C [Diflorasone diacetate, reference compound]	1%
COc1ccc(-c2cc(=O)c3c(O)cc(O[C@@H]4O[C@H](CO[C@@H]5O[C@@H](C)[C@H](O)[C@@H](O)[C@H]5O)[C@@H](O)[C@H](O)[C@H]4O)cc3o2)cc1O	1%
CC1CC(OC(=O)C(O)c2ccccc2)CC(C)(C)N1C (stereo not drawn) [Eucatropine Hydrochloride]	1%
CCOC(=O)/C=C(C)/C=C/C=C(C)/C=C/c1c(C)cc(OC)c(C)c1C [Etretinate]	1%
CO[C@H]1C[C@H](O[C@H]2[C@H](C)O[C@@H](O[C@@H]3/C(C)=C/C[C@@H]4C[C@@H](C[C@]5(C=C[C@H](C)[C@@H](C6CCCCC6)O5)O4)OC(=O)[C@@H]4C=C(C)[C@@H](O)[C@H]5OC/C(=C\C=C\[C@@H]3C)[C@]54O)C[C@@H]2OC)O[C@@H](C)[C@@H]1O	1%
CCN(CC)CCOC(=O)C(c1ccccc1)C1CCCCC1 (stereo not drawn) [Drofenine Hydrochloride]	1%
O=S(=O)([O-])CCCS(=O)(=O)[O-].[Na+].[Na+] [Eprodisate Disodium]	1%
NC(=O)OCC(COC(N)=O)c1ccccc1 [Felbamate]	1%
CCN(CC)C(=O)N1CCN(C)CC1	0%
c1ccc2c(c1)sc1ccccc12	0%
O=C1[C@H](CC[C@H](O)c2ccc(F)cc2)[C@@H](c2ccc(O)cc2)N1c1ccc(F)cc1	1%
CCC(=O)Oc1ccc2c(c1)CC[C@@H]1[C@@H]2CC[C@]2(C)[C@@H](OC(=O)CC)CC[C@@H]12 [Estradiol Dipropionate]	1%
C[C@]12CCC(=O)C=C1[C@@H]1C[C@@H]1[C@H]1[C@@H]3[C@@H]4C[C@@H]4[C@@]4(CCC(=O)O4)[C@@]3(C)CC[C@@H]12	1%
C[C@]12CC[C@H]3C(=CCc4cc(O)ccc43)[C@@H]1CCC2=O	0%
Cc1ccc(-c2ncc(Cl)cc2-c2ccc(S(C)(=O)=O)cc2)cn1	1%
Oc1c(I)cc(I)c2cccnc12 [Diiodohydroxyquinoline]	1%
OC(CCCN1CCCCC1)(c1ccccc1)c1ccccc1	1%
O=C1OC2(c3ccccc31)c1cc(I)c(O)c(I)c1Oc1c2cc(I)c(O)c1I [Erythrosine Sodium]	1%

---

# inhibition at 10 µM per record follows
- Test system: fibrin-induced microglia activation
- experimentalDetails: Image-based assay of fibrin-induced microglia activation (HTS and dose response)
- Assay type: cell-based, rat
- measurementParameters: Rattus norvegicus, Microglia, primary microglia HTS, fibrin stimulation, cell size >800 μm2 as marker of activation; read-out: Fibrin % inhibition
measuredProperty: inhibition at 10 µM (%)

compound	measuredOn	measuredProperty	unitAbbrev	reading
O=C(Oc1ccccc1C(=O)O)c1ccccc1O [Salsalate]	fibrin-induced microglia activation	inhibition at 10 µM	%	-22
CCOc1cc(CC(=O)N[C@@H](CC(C)C)c2ccccc2N2CCCCC2)ccc1C(=O)O [Repaglinide]	fibrin-induced microglia activation	inhibition at 10 µM	%	-14
CC(N)C12CC3CC(CC(C3)C1)C2 (centres unmarked) [Rimantadine]	fibrin-induced microglia activation	inhibition at 10 µM	%	-19
CCC(=O)NCC[C@@H]1CCc2ccc3c(c21)CCO3 [Ramelteon]	fibrin-induced microglia activation	inhibition at 10 µM	%	25
Cc1c(NC(C)C)c(=O)n(-c2ccccc2)n1C [Ramifenazone]	fibrin-induced microglia activation	inhibition at 10 µM	%	-11

---

// Fibrin % cell toxicity lookup, one value per entry
- Test system: primary rat microglia
- measurementParameters: rat
Counter-ions that a name gives are not always drawn.
measuredProperty: Fibrin % cell toxicity (%)

compound	reading
Nc1nc(N)c2nc(-c3ccccc3)c(N)nc2n1	1
C=C[C@H]1C[N@@]2CC[C@H]1C[C@@H]2[C@@H](O)c1ccnc2ccc(OC)cc12	1
CC(C)(C)NCC(O)c1cc(Cl)c(N)c(Cl)c1 (centres unmarked)	1
CN(C)[C@@H]1C(O)=C(C(N)=O)C(=O)[C@@]2(O)C(O)=C3C(=O)c4c(O)cccc4[C@@](C)(O)[C@H]3C[C@@H]12	0
C=C[C@H]1C[N@@]2CC[C@H]1C[C@H]2[C@H](O)c1ccnc2ccc(OC)cc12 [Quinine]	1
O=c1[nH]c2ccccc2n1C1CCN(CCCC(c2ccc(F)cc2)c2ccc(F)cc2)CC1 [Pimozide, reference compound]	2
CCOC(=O)[C@H](CCc1ccccc1)N[C@@H](C)C(=O)N1CCC[C@H]1C(=O)O	1
O=c1oc2ccccc2c(O)c1Cc1c(O)c2ccccc2oc1=O	1
Oc1c(Cl)cc(Cl)cc1Sc1cc(Cl)cc(Cl)c1O	1
Fc1ccc([C@@H]2CCNC[C@H]2COc2ccc3c(c2)OCO3)cc1	1
CC1(C)C[C@@H]1C(=O)N/C(=C\CCCCSC[C@H](N)C(=O)O)C(=O)O	1
CC(=O)Nc1c(I)c(NC(C)=O)c(I)c(C(=O)O)c1I [Diatrizoate]	0
CC(=O)OCC[N+](C)(C)C	0
CCN(CC)CCNc1ccc(CO)c2sc3ccccc3c(=O)c12 [Hycanthone, reference compound]	2
CNNCc1ccc(C(=O)NC(C)C)cc1	1
O=C1CN(/N=C/c2ccc(-c3ccc([N+](=O)[O-])cc3)o2)C(O)=N1	1
Clc1ccc2nsnc2c1NC1=NCCN1	1
C=C1C[C@@H]2[C@H](CC[C@]3(C)C(=O)CC[C@@H]23)[C@@]2(C)C=CC(=O)C=C12	1
O=c1[nH]c(=O)n([C@H]2C[C@H](O)[C@@H](CO)O2)cc1F	1
CC(CN(C)C)CN1c2ccccc2CCc2ccccc21 (centres unmarked) [Trimipramine maleate, reference compound]	1
Clc1ccc(COC(Cn2ccnc2)c2ccc(Cl)cc2Cl)cc1 (centres unmarked)	0
Cc1ccc(-c2cc(C(F)(F)F)nn2-c2ccc(S(N)(=O)=O)cc2)cc1	0
CC(Cc1ccc(O)cc1)NCC(O)c1cc(O)cc(O)c1 (centres unmarked)	0
CCn1cc(C(=O)O)c(=O)c2cnc(N3CCNCC3)nc21	1
Cn1c(=O)c2c(ncn2CC2OCCO2)n(C)c1=O	0
O=C(O)c1cc(/N=N/c2ccc(S(=O)(=O)Nc3ccccn3)cc2)ccc1O	0
CNC(=O)c1cc(Oc2ccc(NC(=O)Nc3ccc(Cl)c(C(F)(F)F)c3)cc2)ccn1	1
CC[C@@H](CO)NC(=O)[C@@H]1C=C2c3cccc4[nH]cc(c34)C[C@H]2N(C)C1	0
CN(C)CCC=C1c2ccccc2COc2ccccc21 [Doxepin]	1
CC(=O)O[C@]1(C(C)=O)CC[C@H]2[C@@H]3C=C(C)C4=CC(=O)CC[C@]4(C)[C@H]3CC[C@@]21C [Megestrol acetate, reference compound]	1
CC1(C)S[C@@H]2[C@H](NC(=O)[C@H](N)c3ccc(O)cc3)C(=O)N2[C@H]1C(=O)O	0
CN1CCN(CC/C=C2/c3ccccc3Sc3ccc(S(=O)(=O)N(C)C)cc32)CC1	0
CC(=O)[O-].[Hg+][c]1ccccc1 [Phenylmercuric Acetate]	82
CNC(=C[N+](=O)[O-])NCCSCc1csc(CN(C)C)n1	0
OC(CCN1CCCCC1)(c1ccccc1)C1CCCCC1 (centres unmarked)	1

---

- System: primary rat microglia
- experimentalDetails: Cell toxicity (dead cells, size <150 μm2) in LPS assay
- measurementParameters: primary microglia HTS, LPS stimulation; decreased size (<150 μm^2) as marker of toxicity
Reported values of LPS % cell toxicity for individual entries

molecule	measuredOn	LPS % cell toxicity [%]
Cc1ccc(O)cc1	primary rat microglia	0
O=S(=O)(O)CCS	primary rat microglia	0
NC(=O)c1ccc[n+]([C@@H]2O[C@H](COP(=O)([O-])OP(=O)(O)OC[C@H]3O[C@@H](n4cnc5c(N)ncnc54)[C@H](O)[C@@H]3O)[C@@H](O)[C@H]2O)c1 [Nadide]	primary rat microglia	0
CC(C)c1nc(N(C)S(C)(=O)=O)nc(-c2ccc(F)cc2)c1/C=C/[C@@H](O)C[C@@H](O)CC(=O)O [Rosuvastatin, reference compound]	primary rat microglia	4
C=C1c2c(Cl)ccc(O)c2C(=O)C2=C(O)[C@]3(O)C(=O)C(C(N)=O)=C(O)[C@@H](N(C)C)[C@@H]3[C@@H](O)[C@H]12.O=C(O)c1cc(S(=O)(=O)O)ccc1O [Meclocycline Sulfosalicylate]	primary rat microglia	0
CCCCC(=O)O[C@]1(C(=O)CO)CC[C@H]2[C@@H]3CCC4=CC(=O)CC[C@]4(C)[C@H]3[C@@H](O)C[C@@]21C [Hydrocortisone valerate, reference compound]	primary rat microglia	1
CN1Cc2c(N)cccc2C(c2ccccc2)C1 (centres unmarked)	primary rat microglia	0
CCCOc1ccc2[nH]c(NC(=O)OC)nc2c1 [Oxybendazole, reference compound]	primary rat microglia	1

The measurements presented in this section are drawn from patent US20210330611A1.
